test_details: Toxicity in Galleria mellonella larvae assessed as survival at 32 ug/ml measured after 72 hrs relative to control
condition_summary: at 32 µg/mL
reported_property: survival at 72 h (%)

{"smiles_repr": "Cc1c(O)c(=O)ccn1CCCCc1ccccc1.Cl", "recorded_number": 100}

---

test_details: Toxicity in Galleria mellonella larvae assessed as survival at 128 ug/ml measured after 48 hrs relative to control
condition_summary: at 128 µg/mL

{"smiles_repr": "Cc1c(O)c(=O)ccn1CCCCc1ccccc1.Cl", "survival at 48 h": "100%"}

---

test_details: Toxicity in Galleria mellonella larvae assessed as survival at 512 ug/ml measured after 24 hrs relative to control
condition_summary: at 512 µg/mL
reported_property: survival at 24 h (%)

{"smiles_repr": "Cc1c(O)c(=O)ccn1CCCCc1ccccc1.Cl", "recorded_number": 100}

---

test_details: Toxicity in Galleria mellonella larvae assessed as survival at 64 ug/ml measured after 48 hrs relative to control
condition_summary: at 64 µg/mL

{"smiles_repr": "Cc1c(O)c(=O)ccn1CCCCc1ccccc1.Cl", "survival at 48 h, %": 100}

---

System: Candida albicans
test_details: Antibiofilm activity against Candida albicans ATCC 10231 assessed as reduction in mature biofilm
Type: functional
The following compounds are listed with their measured MBIC50 values.

{"compound": "Cc1c(OCc2ccccc2)c(=O)ccn1CCCCNC(=O)C(C)c1ccc(C(=O)c2ccccc2)cc1 (stereo unspecified)", "MBIC50": ">128 µg/mL"}
{"compound": "Cc1c(O)c(=O)ccn1C [DEFERIPRONE]", "MBIC50": "128 µg/mL"}
{"compound": "Cc1c(O)c(=O)ccn1CCCCc1ccccc1.Cl", "MBIC50": ">128 µg/mL"}
{"compound": "Cc1c(O)c(=O)ccn1CCCn1ccnc1.Cl", "MBIC50": ">128 µg/mL"}
{"compound": "Cc1c(O)c(=O)ccn1CCCCNC(=O)C(C)c1ccc(C(=O)c2ccccc2)cc1 (stereo unspecified)", "MBIC50": ">128 µg/mL"}
{"compound": "Cc1c(O)c(=O)ccn1CCCCNC(=O)C(C)c1ccc(CC(C)C)cc1 (stereo unspecified)", "MBIC50": ">128 µg/mL"}
{"compound": "COc1ccccc1Cn1ccc(=O)c(O)c1C.Cl", "MBIC50": ">128 µg/mL"}
{"compound": "Cc1c(OCc2ccccc2)c(=O)ccn1CCCCCCn1ccc(=O)c(OCc2ccccc2)c1C", "MBIC50": ">128 µg/mL"}
{"compound": "Cc1c(OCc2ccccc2)c(=O)ccn1CCCCCn1ccc(=O)c(OCc2ccccc2)c1C", "MBIC50": ">128 µg/mL"}
{"compound": "Cc1c(O)c(=O)ccn1CCCCCCn1ccc(=O)c(O)c1C.Cl.Cl", "MBIC50": ">128 µg/mL"}
{"compound": "Cc1c(O)c(=O)ccn1CCCCNC(=O)Cc1ccc(CC(C)C)cc1", "MBIC50": "128 µg/mL"}

---

test_details: Toxicity in Galleria mellonella larvae assessed as survival at 256 ug/ml measured after 48 hrs relative to control
condition_summary: at 256 µg/mL

{"smiles_repr": "Cc1c(O)c(=O)ccn1CCCCc1ccccc1.Cl", "measurement_unit": "%", "survival at 48 h": 100}

---

test_details: Toxicity in Galleria mellonella larvae assessed as survival at 64 ug/ml measured after 24 hrs relative to control
condition_summary: at 64 µg/mL
reported_property: survival at 24 h (%)

{"smiles_repr": "Cc1c(O)c(=O)ccn1CCCCc1ccccc1.Cl", "reported_property": "survival at 24 h", "recorded_number": 100}
